pIC50: −log10 of the molar value.
Hi! I'm sharing some pIC50 results obtained with Factor Xa (Homo sapiens, UniProt P00742).
Sequence (P00742 235-488 limits assumed): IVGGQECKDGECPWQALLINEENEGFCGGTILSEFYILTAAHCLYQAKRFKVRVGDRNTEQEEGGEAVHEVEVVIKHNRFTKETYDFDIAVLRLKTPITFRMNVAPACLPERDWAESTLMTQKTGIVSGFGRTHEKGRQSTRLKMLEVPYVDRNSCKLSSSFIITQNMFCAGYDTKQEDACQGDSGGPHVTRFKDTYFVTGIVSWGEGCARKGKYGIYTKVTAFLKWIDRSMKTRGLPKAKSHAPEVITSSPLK
Sequence (P00742 41-179 partner limits assumed): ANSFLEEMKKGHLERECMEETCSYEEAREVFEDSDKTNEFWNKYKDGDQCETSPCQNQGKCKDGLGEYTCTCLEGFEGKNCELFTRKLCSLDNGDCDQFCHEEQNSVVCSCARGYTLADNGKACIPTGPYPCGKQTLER
Recorded Metric: pIC50

Compound	Recorded Metric	Reported
COc1ccc(S(=O)(=O)N[C@H]2CCCCN(CC(=O)NCc3ccc(C(=N)N)cc3)C2=O)cc1OC [Example 47]	pIC50	≤ 5.60
N/C(=N\O)c1ccc(CNC(=O)CN2C(=O)[C@@H](NS(=O)(=O)c3ccc4c(c3)CCO4)CCc3ccccc32)cc1 [Example 54]	pIC50	≤ 5.60
N=C(N)c1ccc(CNC(=O)CN2CCCC[C@H](NS(=O)(=O)Cc3ccccc3)C2=O)cc1 [Example 67]	pIC50	5.60 to 6.52
N=C(N)c1ccc(CNC(=O)CN2CCCC[C@H](NS(=O)(=O)c3ccccc3)C2=O)cc1 [Example 45]	pIC50	≤ 5.60
Cc1nc(N)ccc1CNC(=O)CN1CCCC[C@H](NS(=O)(=O)Cc2ccccc2)C1=O [Example 66]	pIC50	≤ 5.60
N=C(N)c1ccc(CNC(=O)CN2CCCC[C@H](NS(=O)(=O)c3ccc4c(c3)CCO4)C2=O)c(F)c1 [Example 39]	pIC50	≤ 5.60
N/C(=N\O)c1ccc(CNC(=O)CN2CCCC[C@H](NS(=O)(=O)c3ccc4c(c3)CCO4)C2=O)cc1 [Example 37]	pIC50	≤ 5.60
N/C(=N\O)c1ccc(CNC(=O)[C@@H]2Cc3cccc4c3N2C(=O)[C@@H](NS(=O)(=O)c2ccc3c(c2)CCO3)CC4)cc1 [Example 60]	pIC50	≤ 5.60
N=C(N)c1ccc(CNC(=O)CN2CCCC[C@H](NS(=O)(=O)c3ccc4c(c3)CCO4)C2=O)cc1 [Example 38]	pIC50	≤ 5.60
Cc1nc(N)ccc1CNC(=O)CN1CCCC[C@H](NS(=O)(=O)c2ccc3c(c2)CCO3)C1=O [Example 35]	pIC50	≤ 5.60
N=C(N)c1ccc(CNC(=O)[C@@H]2Cc3cccc4c3N2C(=O)[C@@H](NS(=O)(=O)c2ccc3c(c2)CCO3)CC4)cc1 [Example 61]	pIC50	5.60 to 6.52
N[C@H]1CC[C@H](CNC(=O)CN2CCCC[C@H](NS(=O)(=O)c3ccc4c(c3)CCO4)C2=O)CC1 [Example 48]	pIC50	≤ 5.60
N=C(N)N1CCC(CNC(=O)CN2C(=O)[C@@H](NS(=O)(=O)c3ccc4c(c3)CCO4)CCc3ccccc32)CC1 [Example 56]	pIC50	≤ 5.60

* * *

Reported IC50 by item:
# Tested Target: human α-thrombin (Homo sapiens, UniProt P00734)
# Construct: Purified human α-thrombin; purchased Enzyme Research Laboratories, Inc
# Protocol Text: Thrombin (fIIa) chromogenic enzyme assay
# Format: biochemical
# Condition Label: 0 min
Recorded Metric: IC50

Compound	Recorded Metric	Reported
N[C@H]1CC[C@H](CNC(=O)CN2CCCC[C@H](NS(=O)(=O)c3ccc4c(c3)CCO4)C2=O)CC1 [Example 48]	IC50	0.3 to 2.5 µM
Cc1nc(N)ccc1CNC(=O)CN1CCCC[C@H](NS(=O)(=O)c2ccc3c(c2)CCO3)C1=O [Example 35]	IC50	0.1 to 0.3 µM
N/C(=N\O)c1ccc(CNC(=O)[C@@H]2Cc3cccc4c3N2C(=O)[C@@H](NS(=O)(=O)c2ccc3c(c2)CCO3)CC4)cc1 [Example 60]	IC50	≥ 2.5 µM
N=C(N)N1CCC(CNC(=O)CN2CCCC[C@H](NS(=O)(=O)c3ccc4c(c3)CCO4)C2=O)CC1 [Example 36]	IC50	0.1 to 0.3 µM

* * *

Hi! I'm sharing some Ki results obtained with human α-thrombin (Homo sapiens).

Mol	Ki
N=C(N)c1ccc(CNC(=O)CN2CCCC[C@H](NS(=O)(=O)Cc3ccccc3)C2=O)cc1	≤ 100 nM
N/C(=N\O)c1ccc(CNC(=O)[C@@H]2Cc3cccc4c3N2C(=O)[C@@H](NS(=O)(=O)c2ccc3c(c2)CCO3)CC4)cc1	≥ 2500 nM
N=C(N)N1CCC(CNC(=O)CN2C(=O)[C@@H](NS(=O)(=O)c3ccc4c(c3)CCO4)CCc3ccccc32)CC1	≤ 100 nM
N=C(N)c1ccc(CNC(=O)CN2CCCC[C@H](NS(=O)(=O)c3ccc4c(c3)CCO4)C2=O)c(F)c1	≤ 100 nM
N=C(N)c1ccc(CNC(=O)CN2CCCC[C@H](NS(=O)(=O)c3ccc4c(c3)CCO4)C2=O)s1	≤ 100 nM
N[C@H]1CC[C@H](CNC(=O)CN2CCCC[C@H](NS(=O)(=O)Cc3ccccc3)C2=O)CC1	100 to 300 nM
COc1ccc(OC)c(S(=O)(=O)N[C@H]2CCCCN(CC(=O)NCc3ccc(C(=N)N)cc3)C2=O)c1	≤ 100 nM
N=C(N)c1ccc(CNC(=O)CN2CCCC[C@H](NS(=O)(=O)c3ccccc3)C2=O)cc1	≤ 100 nM
COc1ccc(S(=O)(=O)N[C@H]2CCCCN(CC(=O)NCc3ccc(C(=N)N)cc3)C2=O)cc1OC	≤ 100 nM
COc1ccc(OC)c(S(=O)(=O)N[C@H]2CCCCN(CC(=O)NCC3CCN(C(=N)N)CC3)C2=O)c1	100 to 300 nM
N=C(N)N1CCC(CNC(=O)CN2CCCC[C@H](NS(=O)(=O)c3ccccc3)C2=O)CC1	≤ 100 nM

* * *

Reported pIC50 by item:
# Tested Target: human α-thrombin (Homo sapiens, UniProt P00734)
pIC50: −log10 of the molar value.

Molecule	pIC50
N=C(N)c1ccc(CNC(=O)CN2CCCC[C@H](NS(=O)(=O)c3ccc4c(c3)CCO4)C2=O)c(F)c1 [Example 39]	6.52 to 7.00
COc1ccc(S(=O)(=O)N[C@H]2CCCCN(CC(=O)NCC3CCN(C(=N)N)CC3)C2=O)cc1OC [Example 43]	5.60 to 6.52
N=C(N)c1ccc(CNC(=O)CN2CCCC[C@H](NS(=O)(=O)c3ccc4c(c3)CCO4)C2=O)s1 [Example 24]	≥ 7.00
N=C(N)c1ccc(CNC(=O)[C@@H]2Cc3cccc4c3N2C(=O)[C@@H](NS(=O)(=O)c2ccc3c(c2)CCO3)CC4)cc1 [Example 61]	≥ 7.00

* * *

# Tested Target: human α-thrombin (Homo sapiens, UniProt P00734)

Mol	Tested Target	IC50
N=C(N)c1ccc(CNC(=O)CN2CCCC[C@H](NS(=O)(=O)Cc3ccccc3)C2=O)cc1	human α-thrombin (Homo sapiens, UniProt P00734)	100 to 300 nM
N=C(N)c1ccc(CNC(=O)CN2CCCC[C@H](NS(=O)(=O)c3ccccc3)C2=O)cc1	human α-thrombin (Homo sapiens, UniProt P00734)	100 to 300 nM
COc1ccc(OC)c(S(=O)(=O)N[C@H]2CCCCN(CC(=O)NCC3CCN(C(=N)N)CC3)C2=O)c1	human α-thrombin (Homo sapiens, UniProt P00734)	300 to 2500 nM
N/C(=N\O)c1ccc(CNC(=O)CN2CCCC[C@H](NS(=O)(=O)c3ccc4c(c3)CCO4)C2=O)cc1	human α-thrombin (Homo sapiens, UniProt P00734)	300 to 2500 nM
COc1ccc(OC)c(S(=O)(=O)N[C@H]2CCCCN(CC(=O)NCc3ccc(C(=N)N)cc3)C2=O)c1	human α-thrombin (Homo sapiens, UniProt P00734)	≤ 100 nM

meta.source: patent US6541467B1
